Field: viability at 72 h, 0.78125 uM. Provide a value for each of the compounds that follow.
Experiment: Cytotoxicity assay (CellTiter-Glo, 72 h), Jurkat
Type: cell-based
Details: human, Jurkat cells (T lymphoma), conc 0.78125 uM, raw data (replicates)
Protocol: Jurkat cells were cultured in RPMI1640 medium supplemented with 10% foetal bovine serum, penicillin (50 U/ml), streptomycin (50 μg/ml), and Glutamax. SKOV-3 cells were cultured in DMEM medium supplemented with 10% fetal bovine serum, penicillin (50 U/ml), and streptomycin (50 μg/ml). […] Cell viabilities were measured using a CellTiter-Glo luminescent cell viability assay and EnVision multilabel plate reader.
Your answer is read as %, so omit the unit and give the number.

CO[C@H]1C[C@@H]2CC[C@@H](C)[C@@](O)(O2)C(=O)C(=O)N2CCCC[C@H]2C(=O)O[C@H]([C@H](C)C[C@@H]2CC[C@@H](O)[C@H](OC)C2)CC(=O)[C@H](C)/C=C(\C)[C@@H](O)CC[C@H](C)/C=C/C=C/C=C/1C [Compound 7] yielded viability at 72 h, 0.78125 uM of 31

Short answer for CO[C@H]1C[C@@H]2CC[C@@H](C)[C@@](O)(O2)C(=O)C(=O)N2CCCC[C@H]2C(=O)O[C@H]([C@H](C)C[C@@H]2CC[C@@H](O)[C@H](OC)C2)CC(=O)[C@H](C)/C=C(\C)[C@@H](O)CC(=O)[C@H](C)C[C@H](C)/C=C/C=C(C)/C=C/1C [Compound 2, 27-demethoxy-19-methyl rapamycin] : viability at 72 h, 0.78125 uM was 95.4

---

Assay: Cytotoxicity assay (CellTiter-Glo, 72 h), MESO-1
Type: cell-based
Conditions: human, MESO-1 malignant pleural mesothelioma cells, conc 0.012207 uM; raw replicate data; read-out: MESO1 viability (%)
reported.property: viability at 72 h, 0.012207 uM (%)
State the answer as a number, implicitly in %.

// sample CO[C@H]1C[C@@H]2CC[C@@H](C)[C@@](O)(O2)C(=O)C(=O)N2CCCC[C@H]2C(=O)O[C@H]([C@H](C)C[C@@H]2CC[C@@H](O)[C@H](OC)C2)CC(=O)[C@H](C)/C=C(\C)[C@@H](O)[C@@H](OC)C(=O)[C@H](C)C[C@H](C)/C=C/C=C/C=C/1C [Compound 1, rapamycin, reference compound] , its viability at 72 h, 0.012207 uM was 77.6

The molecule listed as COC1CC2CCC(C)C(O)(O2)C(=O)C(=O)N2CCCCC2C(=O)OC(C(C)CC2CCC(O)C(OC)C2)CCC(C)C=C(C)C(O)C(OC)C(=O)C(C)CC(C)C=CC=CC=C1C (centres unmarked) shows viability at 72 h, 0.012207 uM equal to 73.8

---

Assay: Cytotoxicity assay (CellTiter-Glo, 72 h), MESO-1
Format: cell-based
Details: human, MESO-1 malignant pleural mesothelioma cells, conc 0.012207 uM; raw replicate data; read-out: MESO1 viability (%)
reported.property: viability at 72 h, 0.012207 uM
Kindly format the answer as number then unit.

molecule CO[C@@H]1C[C@H](C[C@@H](C)[C@@H]2CC(=O)[C@H](C)/C=C(\C)[C@@H](O)[C@@H](OC)C(=O)[C@H](C)C[C@H](C)/C=C/C=C/C=C(\C)[C@H](O)C[C@@H]3CC[C@@H](C)[C@@](O)(O3)C(=O)C(=O)N3CCCC[C@H]3C(=O)O2)CC[C@H]1O [Compound 17, (16R)-16-O-demethyl rapamycin] , viability at 72 h, 0.012207 uM observed: 83.5%

Form: molecule = CO[C@H]1C[C@@H]2CC[C@@H](C)[C@@](O)(O2)C(=O)C(=O)N2CCCC[C@H]2C(=O)O[C@H]([C@H](C)C[C@@H]2CC[C@@H](O)[C@H](OC)C2)CC(=O)[C@H](C)/C=C(\C)[C@@H](O)CC(=O)[C@H](C)C[C@H](C)/C=C/C=C(C)/C=C/1C [Compound 2, 27-demethoxy-19-methyl rapamycin] ; viability at 72 h, 0.012207 uM = 103%
